Target: Hypoxia-inducible factor 1-alpha (Homo sapiens) (UniProt Q16665)
Sequence (Q16665 whole entry, looked up): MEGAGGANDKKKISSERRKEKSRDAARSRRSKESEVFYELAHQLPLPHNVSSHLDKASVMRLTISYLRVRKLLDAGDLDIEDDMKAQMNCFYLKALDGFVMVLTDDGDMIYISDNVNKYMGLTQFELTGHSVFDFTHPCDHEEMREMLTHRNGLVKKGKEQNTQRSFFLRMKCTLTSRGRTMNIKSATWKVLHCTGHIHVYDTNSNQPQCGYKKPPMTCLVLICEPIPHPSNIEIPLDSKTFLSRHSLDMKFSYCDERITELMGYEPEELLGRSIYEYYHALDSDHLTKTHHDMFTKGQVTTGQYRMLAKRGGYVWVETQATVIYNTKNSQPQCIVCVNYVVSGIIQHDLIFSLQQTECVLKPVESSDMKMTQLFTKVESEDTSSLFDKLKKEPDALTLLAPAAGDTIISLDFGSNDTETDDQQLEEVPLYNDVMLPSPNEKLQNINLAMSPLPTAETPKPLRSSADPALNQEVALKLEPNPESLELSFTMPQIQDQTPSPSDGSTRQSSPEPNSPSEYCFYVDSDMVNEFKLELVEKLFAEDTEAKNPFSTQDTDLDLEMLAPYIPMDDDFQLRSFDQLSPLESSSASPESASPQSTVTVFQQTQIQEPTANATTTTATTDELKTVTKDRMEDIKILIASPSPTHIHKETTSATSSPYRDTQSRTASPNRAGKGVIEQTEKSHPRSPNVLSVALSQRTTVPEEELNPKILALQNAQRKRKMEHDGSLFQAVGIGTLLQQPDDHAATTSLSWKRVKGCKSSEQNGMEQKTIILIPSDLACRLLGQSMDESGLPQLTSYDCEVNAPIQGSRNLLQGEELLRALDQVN
Assay: activators of HIF1alpha nuclear accumulation, confirmation, imaging, fluorescence, U2OS GFP-HIF1alpha (AID 434951)
Conditions: U2OS GFP-HIF1alpha nuclear intensity, high-content imaging
Calls of active or inactive are those of the source.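 How the source made its calls: active means a fitted half-maximal concentration EC50 for the rise in nuclear signal no higher than ten times the top dose tested; inconclusive means flat fit with activity between 30% and 70%, or unusable fit; inactive means EC50 beyond ten times the top dose.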
The categories you may choose from are TRUE (active), FALSE (inactive)

Observe how each entry below is paired with its result.
compound	assigned.class
O=C(NCC1CCCO1)c1cc(-c2ccccc2F)no1 (stereo not drawn)	TRUE
COc1cc(C(=O)NCCc2nc3ccccc3n2C)cc(OC)c1OC	FALSE
Cc1c(C(=O)N2CCCCC2)c(S(=O)(=O)NCCc2ccc(Cl)cc2)c(C)n1C	FALSE
Cc1cc(Oc2ccccc2)nc(N2CCOCC2)n1	FALSE

Q: Hi, do you know how CCCCC(=O)NC(c1ccccc1OC)c1ccc2cccnc2c1O (stereo not drawn) came out in this test?
Result: TRUE

Q: Hi, do you know how `CCOC(=O)CN(C(=O)COc1nc(C)cc(C)c1C#N)c1cccc(Cl)c1` came out in this test?
Result: FALSE

Q: Hi, do you know how `CCN1CCN(c2ccc([N+](=O)[O-])cc2C=C2C(=O)NC(=O)NC2=O)CC1` came out in this test?
Result: FALSE

###

Biological target: Hypoxia-inducible factor 1-alpha (Homo sapiens) (UniProt Q16665)
Experiment: activators of HIF1alpha nuclear accumulation, confirmation, imaging, fluorescence, U2OS GFP-HIF1alpha (AID 434951)
Details: U2OS GFP-HIF1alpha nuclear intensity, high-content imaging
Calls of active or inactive are those of the source.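 The calls were made as follows: active = a fitted half-maximal concentration EC50 for the rise in nuclear signal no higher than ten times the top dose tested; inconclusive = flat fit with activity between 30% and 70%, or unusable fit; inactive = EC50 beyond ten times the top dose.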
The categories you may choose from are active, inactive

molecule	assigned.class
O=C(NC1CCCC1)c1cc(-c2ccccc2)on1	active
COc1ccccc1-c1cc(C(F)(F)F)nc(S(=O)(=O)CCCC(=O)NCc2ccc(F)cc2)n1	active

Q: Hi, do you know how `CC(C)c1ccc2oc(=O)cc(CN3CCOCC3)c2c1` came out in this test?
Result: inactive

###

Molecular target: Hypoxia-inducible factor 1-alpha (Homo sapiens)
Assay: activators of HIF1alpha nuclear accumulation, confirmation, imaging, fluorescence, U2OS GFP-HIF1alpha (AID 434951)
Conditions: U2OS GFP-HIF1alpha nuclear intensity, high-content imaging
Active and inactive are the calls of the source.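 The calls were made as follows: active = a fitted half-maximal concentration EC50 for the rise in nuclear signal no higher than ten times the top dose tested; inconclusive = flat fit with activity between 30% and 70%, or unusable fit; inactive = EC50 beyond ten times the top dose.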
The categories you may choose from are active, inactive

smi	assayed.system	assigned.class
O=C(C1=NN[C@@H]2C(=O)N(c3cccc(C(F)(F)F)c3)C(=O)[C@H]12)C(c1ccccc1)c1ccccc1	Hypoxia-inducible factor 1-alpha (Homo sapiens)	inactive
CCC/C(=N/NC(=O)c1cccc(Cl)c1)c1ccccc1	Hypoxia-inducible factor 1-alpha (Homo sapiens)	inactive
Oc1ccccc1N=Nc1ccccc1O	Hypoxia-inducible factor 1-alpha (Homo sapiens)	active

Q: Hi, do you know how `Cc1ccc(NC(=O)Cn2cnc3c(=O)n(C)c(=O)n(C)c32)c(C)c1` came out in this test?
Result: inactive

Q: Hi, do you know how `CCCCN(C(=O)c1c(C)[nH]c(C(=O)OCC)c1C)c1ccccc1` came out in this test?
Result: inactive

Q: Hi, do you know how `COc1ccc(OC)c2[nH]c(C(=O)N/N=C/c3ccccc3O)cc12` came out in this test?
Result: active

###

Molecular target: Hypoxia-inducible factor 1-alpha (Homo sapiens) (UniProt Q16665)
Test: activators of HIF1alpha nuclear accumulation, confirmation, imaging, fluorescence, U2OS GFP-HIF1alpha (AID 434951)
Details: U2OS GFP-HIF1alpha nuclear intensity, high-content imaging
The source made the active and inactive calls.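 The calls were made as follows: active = a fitted half-maximal concentration EC50 for the rise in nuclear signal no higher than ten times the top dose tested; inconclusive = flat fit with activity between 30% and 70%, or unusable fit; inactive = EC50 beyond ten times the top dose.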
The categories you may choose from are active, inactive

smi	assayed.system	assigned.class
CCOC(=O)Cc1nn(CC)c(=O)c2ccccc12	Hypoxia-inducible factor 1-alpha (Homo sapiens) (UniProt Q16665)	inactive
CC(=O)Nc1nc(C)c(-c2csc(Nc3ccccn3)n2)s1	Hypoxia-inducible factor 1-alpha (Homo sapiens) (UniProt Q16665)	inactive
COc1ccc2cc3c(N)nn(C(=O)Cc4c[nH]c5ccccc45)c3nc2c1	Hypoxia-inducible factor 1-alpha (Homo sapiens) (UniProt Q16665)	inactive
O=C(c1ccc(OC2CCN(Cc3ccc(F)cc3)CC2)cc1)N1CCCC1	Hypoxia-inducible factor 1-alpha (Homo sapiens) (UniProt Q16665)	inactive

As a next step, examine the compound that follows.
Q: Hi, do you know how `C=CCc1cccc(/C=N/NC(=O)c2ccc3nc[nH]c3c2)c1O` came out in this test?
Result: active
